# Lookup of reported pIC50 keyed by entry
molecular target: EP2 receptor (Homo sapiens, UniProt P43116); experiment: EP2 Potency Assay (cAMP TR-FRET, CHO-K1 cells transfected with EP2 receptor, PGE2 at EC80); details: CHO-K1 cells expressing EP2, prostaglandin E2 at EC80, read-out: EP2 Potency (IC50 category)
Sequence (P43116 whole entry): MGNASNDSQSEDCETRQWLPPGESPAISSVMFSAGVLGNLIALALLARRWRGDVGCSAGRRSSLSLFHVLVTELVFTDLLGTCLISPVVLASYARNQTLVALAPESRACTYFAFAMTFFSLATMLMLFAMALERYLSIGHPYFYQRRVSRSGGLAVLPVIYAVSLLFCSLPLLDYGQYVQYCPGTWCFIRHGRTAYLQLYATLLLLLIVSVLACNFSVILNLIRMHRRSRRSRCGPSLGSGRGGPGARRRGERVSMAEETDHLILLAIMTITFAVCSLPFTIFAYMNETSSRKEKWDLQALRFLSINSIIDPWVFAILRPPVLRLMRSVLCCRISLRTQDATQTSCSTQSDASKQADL
pIC50: −log10 of the molar value.
PARAMETER_MEASURED: pIC50

{"STRUCTURE_NOTATION": "COc1ncc(CN2CCOc3c(Cl)cc(-n4ccc5cc(Cl)ccc54)cc3C2)cn1", "TARGET_OR_TEST_SYSTEM": "EP2 receptor (Homo sapiens, UniProt P43116)", "EXPERIMENTAL_VALUE": "6.00 to 6.30"}
{"STRUCTURE_NOTATION": "O=c1ncc(CN2CCOc3c(Cl)cc(-n4ccc5c(F)c(Cl)ccc54)cc3C2)c[nH]1", "TARGET_OR_TEST_SYSTEM": "EP2 receptor (Homo sapiens, UniProt P43116)", "EXPERIMENTAL_VALUE": "6.00 to 6.30"}
{"STRUCTURE_NOTATION": "CC(C)(C)OC(=O)Nc1cc(CN2CCOc3c(Cl)cc(-n4ccc5cc(F)ccc54)cc3C2)ccn1", "TARGET_OR_TEST_SYSTEM": "EP2 receptor (Homo sapiens, UniProt P43116)", "EXPERIMENTAL_VALUE": "< 5.30"}
{"STRUCTURE_NOTATION": "Fc1ccc2c(ccn2-c2cc(Cl)c3c(c2)CN(Cc2cc[nH]c(=S)c2)CCO3)c1", "TARGET_OR_TEST_SYSTEM": "EP2 receptor (Homo sapiens, UniProt P43116)", "EXPERIMENTAL_VALUE": "6.30 to 7.00"}
